Target: T1, human VISTA expressed on the cell surface (HEK293 cells transfected with human VISTA cDNA); native on human … (human, UniProt Q9H7M9 33-311)
T1 construct: whole, on cells; also called PD-1H
T1 sequence (looked up): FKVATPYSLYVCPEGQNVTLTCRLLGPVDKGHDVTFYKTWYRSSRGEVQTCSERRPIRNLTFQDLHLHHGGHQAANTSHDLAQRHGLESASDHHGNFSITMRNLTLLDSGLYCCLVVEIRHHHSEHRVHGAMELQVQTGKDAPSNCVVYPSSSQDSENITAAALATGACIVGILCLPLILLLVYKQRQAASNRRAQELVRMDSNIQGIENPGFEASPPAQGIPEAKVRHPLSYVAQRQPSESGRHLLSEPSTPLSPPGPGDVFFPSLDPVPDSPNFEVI
Test: method not stated; table follows flow cytometry on HEK293 cells transfected with human VISTA
property-name: Kd
Don't forget the unit after the value.

Inquiry: Query (binder): humanized anti-VISTA antibody 29G7-HZD2 (antibody, human IgG1, kappa, V domains shown, kappa light chain) VH: EVQLVESGGGLVQPGGSLRLSCAASGFSLSSYAMGWVRQAPGKGLEWVGIIIVSGNIYYASWAKGRFTISRDNSKNTLYLQMNSLRAEDTAVYYCARGDGYTYGLWGQGTLVTVSS VL: DIQMTQSPSTLSASVGDRVTITCQASQSVYSRYLAWYQQKPGKAPKLLIYSASTLASGVPSRFSGSGSGTEFTLTISSLQPDDFATYYCQGTFYIPDYIDGFGGGTKVEIKR ; field requested: Kd
Reply text: 0.281 nM

Every entry's value here was drawn from patent US20210139589A1.
